The origin of these recorded values is ChEMBL document CHEMBL3400108.

Biological target: Monoglyceride lipase (Homo sapiens, UniProt Q99685)
Sequence (Q99685 whole entry): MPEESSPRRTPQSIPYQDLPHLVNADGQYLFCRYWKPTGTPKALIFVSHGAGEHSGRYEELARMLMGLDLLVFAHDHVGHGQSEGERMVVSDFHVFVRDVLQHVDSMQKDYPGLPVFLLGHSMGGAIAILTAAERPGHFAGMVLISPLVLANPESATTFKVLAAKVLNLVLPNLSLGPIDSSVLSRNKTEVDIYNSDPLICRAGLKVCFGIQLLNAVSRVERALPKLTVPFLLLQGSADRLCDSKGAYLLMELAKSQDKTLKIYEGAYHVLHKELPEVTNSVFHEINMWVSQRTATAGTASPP
Non-standard residues stand in square brackets, D forms with d. Residues, ends and D or L forms follow the SMILES beside them. Groups on a side chain read outwards from the residue. *: point of attachment. Phe(4-F) = N[C@@H](Cc1ccc(F)cc1)C(=O)O; NEt2 = CCN(CC)*
value-type: IC50

Example cases with answers are listed next.
compound: CCN(CC)C(=O)[C@H](Cc1ccc(F)cc1)NC(=O)[C@H](CC(C)C)NC(=O)[C@@H](NC(=O)[C@@H](N)COC(=O)[C@H](CC(C)C)NC(C)=O)C(C)C (H-S([Leu-Ac])VL[Phe(4-F)]-NEt2)
measured-on: Monoglyceride lipase (Homo sapiens, UniProt Q99685)
value-type: IC50
measured-value: > 144 µM

compound: CCN(CC)C(=O)[C@H](Cc1ccc(OC)cc1)NC(=O)[C@H](CC(C)C)NC(=O)[C@@H](NC(=O)[C@@H](N)COC(=O)[C@H](CC(C)C)NC(C)=O)C(C)C (H-S([Leu-Ac])VLY(Me)-NEt2)
measured-on: Monoglyceride lipase (Homo sapiens, UniProt Q99685)
value-type: IC50
measured-value: > 142 µM

We now examine a further compound.
Read off the recorded IC50 for CCN(CC)C(=O)[C@H](Cc1ccccc1)NC(=O)[C@H](CC(C)C)NC(=O)[C@@H](NC(=O)[C@@H](N)COC(=O)[C@@H]1CCCN1C(C)=O)C(C)C (H-S([Pro-Ac])VLF-NEt2)
> 152 µM
